Biological target: rhMBP (with Vitamin C) (Homo sapiens, UniProt P11226)
Construct: made in house; host or cells: CHO DG44 (dhfr-), neomycin/MTX-resistant clones; purified from culture supernatant on mannan-agarose
Sequence (P11226 21-248): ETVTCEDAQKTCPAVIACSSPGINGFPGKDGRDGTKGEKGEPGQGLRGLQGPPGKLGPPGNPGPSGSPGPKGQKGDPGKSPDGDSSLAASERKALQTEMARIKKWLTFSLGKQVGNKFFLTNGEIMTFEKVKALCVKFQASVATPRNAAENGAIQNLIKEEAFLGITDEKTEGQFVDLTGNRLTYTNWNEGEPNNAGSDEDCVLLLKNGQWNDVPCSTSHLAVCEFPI
Assay: Sugar inhibition of rhMBP (cultured with vitamin C) binding to mannan (ELISA)
Conditions: rhMBP (with Vitamin C); mannan-coated microtiter plates; read-out: I 50: Sugar concentration to halve binding activities with mannan
measuredQuantity: pIC50
# log scale: pIC50 equals minus log10 of the concentration in mol/L

Please review the entries below; each comes with its answer.
Q: So what does the record say about pIC50 for C[C@H](O)[C@@H](O)[C@@H](O)[C@H](O)C=O [L-Fucose] ?
Result: 2.36

Q: Please look up its pIC50: CC(=O)N[C@H]1C(O)O[C@H](CO)[C@@H](O)[C@@H]1O (stereo partly drawn) [N-Acetyl-D-Glucosamine]
Result: 2.44

Q: What value of measured pIC50 is listed for C[C@@H](O)[C@H](O)[C@H](O)[C@@H](O)C=O [D-Fucose] ?
Result: 1.41

Q: Bench note: what pIC50 did OC[C@H]1O[C@H](O[C@H]2[C@H](O)[C@@H](O)[C@H](O)O[C@@H]2CO)[C@H](O)[C@@H](O)[C@@H]1O [Maltose] show?
Result: 2.19

Q: Which pIC50 value belongs to OC[C@H]1O[C@@H](O[C@H]2[C@H](O)[C@@H](O)C(O)O[C@@H]2CO)[C@H](O)[C@@H](O)[C@H]1O (stereo partly shown) [Lactose] ?
Result: 1.33

Others:
Q: What measured pIC50 goes with CC(=O)N[C@@H]1C(O)O[C@H](CO)[C@@H](O)[C@@H]1O (stereo partly drawn) [N-Acetyl-D-Mannosamine] ?
Result: 2.16
